details: in 1-methoxy-2-propanol, 293.15 K

{"smiles-record": "O=P(Oc1ccccc1)(Oc1ccccc1)N1CCN(P(=O)(Oc2ccccc2)Oc2ccccc2)CC1", "solubility (mole fraction)": 0.000356}
{"smiles-record": "O=P(NCc1cccc(CNP(=O)(Oc2ccccc2)Oc2ccccc2)c1)(Oc1ccccc1)Oc1ccccc1", "solubility (mole fraction)": 0.000609}

----------
details: in 1-propoxy-2-propanol, 333.15 K
Below is a list of entries, each paired with its recorded solubility (mole fraction) value.

{"smiles-record": "O=P(NCc1cccc(CNP(=O)(Oc2ccccc2)Oc2ccccc2)c1)(Oc1ccccc1)Oc1ccccc1", "solubility (mole fraction)": 0.00259}
{"smiles-record": "O=P(Oc1ccccc1)(Oc1ccccc1)N1CCN(P(=O)(Oc2ccccc2)Oc2ccccc2)CC1", "solubility (mole fraction)": 0.00219}

All figures here come from BigSolDB 2.1.
